Tested on: Trypanosoma brucei
Assay: DNDI: Inhibition of Human African Trypanosomiasis, SBRI 427, in vitro at 2 ug.mL-1
Type: functional
In all, about 4,400 compounds went through this assay and about 390 (8.9%) showed an effect of 50% or more. The sample as a whole holds a higher share of strong results than the screen did.
Below: a set of entries, each annotated with reported % inhibition.
Number in %, nothing else.

As a guide, the following entries are already answered.
COMPOUND	% inhibition / %
COc1cccc(-c2nc(CNC34C[C@H]5C[C@@H](C3)C[C@@H](C4)C5)co2)c1	85
Oc1ccc(-c2nc(CNC34C[C@H]5C[C@@H](C3)C[C@@H](C4)C5)co2)cc1	23

# evaluate next
Recorded % inhibition for `C=CCc1ccc(Oc2ccc(/C(=N/O)NCc3ccncc3)cn2)c(OC)c1` with Trypanosoma brucei, please? 80

====

Tested on: Trypanosoma brucei
Assay: DNDI: Inhibition of Human African Trypanosomiasis, SBRI 427, in vitro at 2 ug.mL-1
Assay type: functional
Out of some 4,400 compounds screened, about 390 (8.9%) showed an effect of 50% or more. What follows is part of a selection rich in strong results, with near analogues and random picks from the rest.
ENDPOINT_LABEL: % inhibition (%)
Number only, in %; omit the unit.

Solved cases (5 shown):
QUERY_SMILES	REPORTED_RESULT
Cc1cc(C)cc(CN/C(=N\O)c2cccnc2Oc2ccc(C)c3c2CCC3)c1	69
CCOc1ccccc1CN/C(=N\O)c1cccnc1Oc1ccc(C)c2c1CCC2	100
Cc1ccc(Oc2ncccc2/C(=N/O)NCc2cccnc2)c2c1CCC2	6
Cc1ccc(Oc2ncccc2/C(=N/O)NCc2ccccc2)c2c1CCC2	99
C=CCN1CCN(/C(=N\O)c2cccnc2Oc2ccc(Cl)cc2)CC1	7

Let us examine a further case.
Please state recorded % inhibition (tested on Trypanosoma brucei) of `Cc1ccc(Oc2ncccc2/C(=N/O)NCc2ccco2)c2c1CCC2` -6

====

Test system: Trypanosoma brucei
Assay: DNDI: Inhibition of Human African Trypanosomiasis, SBRI 427, in vitro at 2 ug.mL-1
Type: functional
The campaign covered roughly 4,400 compounds. About 390 (8.9%) showed an effect of 50% or more. This excerpt belongs to a sample that is enriched for strong results.
ENDPOINT_LABEL: % inhibition (%)
Quick reminder: number only, in %, skip the unit.

QUERY_SMILES	% inhibition, %
Brc1ccc(-c2nc(CN3CCCCCC3)co2)cc1	72
COc1ccc(N2CCN(Cc3coc(-c4ccc(F)cc4)n3)CC2)cc1	-1
Clc1ccccc1-c1nc(CN2CCN(C/C=C/c3ccccc3)CC2)co1	-22
O/N=C(\NCc1c(F)cccc1F)c1ccc(Oc2ccc(Cl)cc2)nc1	6
Cc1ccc(-c2nc(CN3CCC(N4CCCC4)CC3)co2)cc1	60

Identify the measured % inhibition of `Cc1ccc(-c2nc(CN3CCN(c4ccc(F)cc4)CC3)co2)cc1` for Trypanosoma brucei. 0

====

Examples of compounds with documented % inhibition follow.
System: Trypanosoma brucei
Experiment: DNDI: Inhibition of Human African Trypanosomiasis, SBRI 427, in vitro at 2 ug.mL-1
Assay type: functional
The whole screen tested about 4,400 compounds, of which about 390 (8.9%) showed an effect of 50% or more. What follows is part of a selection rich in strong results, with near analogues and random picks from the rest.
Report the figure along with its unit, number first.

COMPOUND	% inhibition
O/N=C(\NCC1CCCCC1)c1ccc(Oc2cc(Cl)ccc2Cl)nc1	76%
O/N=C(\NC1CCCC1)c1ccc(Oc2cc(Cl)ccc2Cl)nc1	99%
CSc1ccc(Oc2ccc(/C(=N/O)NCc3ccccc3C)cn2)cc1	-7%
Fc1ccc(-c2nc(CN3CCC(N4CCCCC4)CC3)co2)cc1	4%
O/N=C(\NCc1cccnc1)c1ccc(Oc2cc(Cl)ccc2Cl)nc1	8%
O/N=C(\NCc1ccccc1F)c1ccc(Oc2ccc(Cl)cc2)nc1	-6%
Fc1ccc(-c2nc(CNC3CCc4ccccc43)co2)cc1 (stereo unspecified)	28%
O/N=C(/c1ccc(Oc2cc(Cl)ccc2Cl)nc1)N1CCN(C2CCCC2)CC1	22%

For the compound `CSc1ccc(Oc2ccc(/C(=N/O)NCc3ccccc3F)cn2)cc1` , what % inhibition is on record? 95%

Fill in the blank: the reported % inhibition of `N#CCCN(Cc1ccccc1)Cc1coc(-c2ccc(F)cc2)n1` is ____. -7%

Recorded % inhibition for `O/N=C(\NCCN1CCOCC1)c1ccc(Oc2cc(Cl)ccc2Cl)nc1` , please? 34%

====

System: Trypanosoma brucei
Experiment: DNDI: Inhibition of Human African Trypanosomiasis, SBRI 427, in vitro at 2 ug.mL-1
Format: functional
Out of some 4,400 compounds screened, about 390 (8.9%) showed an effect of 50% or more. For the sample, strong results were picked, then their nearest neighbours and some compounds at random.
ENDPOINT_LABEL: % inhibition (%)
Respond with the bare value in %.

Below are worked cases with known answers.
MOLECULE	TARGET_OF_ASSAY	% inhibition / %
COc1ccc(Oc2ncccc2/C(=N/O)N(C)C2CCCCC2)cc1	Trypanosoma brucei	-15
O=Cc1nccn1Cc1coc(-c2ccc(F)cc2)n1	Trypanosoma brucei	-8
Nc1cc(-c2ccccc2)n(Cc2coc(-c3ccc(OC(F)(F)F)cc3)n2)n1	Trypanosoma brucei	-3
COc1ccc(-c2nc(Cn3ccnc3C(C)C)co2)cc1	Trypanosoma brucei	29
C=CCN(CC=C)Cc1coc(-c2cccs2)n1	Trypanosoma brucei	-3
CN(Cc1ccco1)/C(=N\O)c1ccc(Oc2cc(Cl)ccc2Cl)nc1	Trypanosoma brucei	-12
CC1CCCC(NCc2coc(-c3cccc4ccccc34)n2)C1C (configuration not stated)	Trypanosoma brucei	71
Cc1ccc(-c2nc(Cn3ccnc3C(C)C)co2)cc1	Trypanosoma brucei	39
COc1ccc(Oc2ncccc2/C(=N/O)NC2CCCCC2)cc1	Trypanosoma brucei	98
COc1cccc(-c2nc(CN3CCN(c4ccccn4)CC3)co2)c1	Trypanosoma brucei	-9

Suppose we examine the molecule `Fc1cccc(-c2nc(CN3CCCCCC3)co2)c1` ; what % inhibition value has been reported? 5

For the molecule shown here, CCCC(C)NCc1coc(-c2ccc(F)cc2)n1 (configuration not stated) , give the reported % inhibition. -16

Given the molecule `FC(F)(F)CNCc1coc(-c2ccc(Cl)cc2Cl)n1` , what is its reported % inhibition? 23

% inhibition for Cc1ccc(/C(=N/O)N2C(C)CCCC2C)c(Oc2ccc(F)cc2)n1 (configuration not stated) ? 28

Field request: % inhibition | item: `CCc1ccc(Oc2ncccc2/C(=N/O)NCc2ccccc2OC)cc1` 99

What value of % inhibition has been recorded for this entry: `COc1cc(-c2nc(CNCc3cccc4ccccc34)co2)cc(OC)c1OC` 0

Fill in: % inhibition of COc1ccc(-c2nc(CNC3CCCC(C)C3C)co2)cc1 (configuration not stated) is ___ 2

Bench note: what % inhibition did `CC(C)c1nccn1Cc1coc(-c2ccc(OC(F)(F)F)cc2)n1` show? 56

What does the record list as % inhibition for O/N=C(/c1cccnc1Oc1ccc(Cl)cc1)N1CCC2CCCCC2C1 (configuration not stated) ? -20

Requested field: % inhibition. Item: `Cc1cc(C)cc(CN/C(=N\O)c2ccc(C)nc2Oc2cc(C)cc(C)c2)c1` 41

Any idea what its % inhibition is? The molecule is `COc1cc(C)ccc1Oc1nc(C)ccc1/C(=N/O)NCc1cc(C)cc(C)c1` 98

Fill blank: measured % inhibition of the molecule `O/N=C(/c1cccnc1Oc1ccccc1Cl)N1CCN(c2ccc(F)cc2)CC1` is ____. 3

What does the record list as % inhibition for COc1ccc(-c2nc(CNC(C)CCCC(C)C)co2)cc1 (configuration not stated) ? -10

====

System: Trypanosoma brucei
Assay: DNDI: Inhibition of Human African Trypanosomiasis, SBRI 427, in vitro at 2 ug.mL-1
Format: functional
Out of some 4,400 compounds screened, about 390 (8.9%) showed an effect of 50% or more. The full list was thinned out, with strong results kept by preference.
ENDPOINT_LABEL: % inhibition (%)
Numeric only. Scale: %

COMPOUND	% inhibition, %
C#CCN(C)Cc1coc(-c2ccc(C)cc2)n1	-1

We next turn to a different compound, shown below.
Entry under review: Cc1ccc(/C(=N/O)NC2CC(C)CC(C)(C)C2)c(Oc2cc(Cl)ccc2Cl)n1 (stereo unspecified) . Reported % inhibition? 7

====

Test system: Trypanosoma brucei
Experiment: DNDI: Inhibition of Human African Trypanosomiasis, SBRI 427, in vitro at 2 ug.mL-1
Format: functional
Among all 4,400 compounds or so, about 390 (8.9%) showed an effect of 50% or more. For the sample, strong results were picked, then their nearest neighbours and some compounds at random.
Use 10% as the dividing line for % inhibition, with the line itself on the class 1 side and lower values as class 0.

Study these solved cases before continuing.
COMPOUND	ANSWER_LABEL
N/C(=N\O)c1ccc(Oc2cccc3ccccc23)nc1	class 1
Cc1ccc(/C(=N/O)Nc2ccc(C(C)C)cc2)c(Oc2cccc(F)c2)n1	class 1
CC(C)c1ccc(N/C(=N\O)c2ccc(Oc3ccc(-n4ccnc4)cc3)nc2)cc1	class 1
CC(C)COc1ncccc1/C(=N/O)N1CCC2CCCCC2C1 (stereo unspecified)	class 0

Please tell me: is the compound CCOC(=O)C1CCCCN1Cc1coc(-c2ccccc2C)n1 (stereo unspecified) at or over 10% in terms of % inhibition? class 0
